# ASSAY_INFO: COS7 lysate on small-molecule microarray, probe aHis, 635 nm (AID 1123);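 also: z-score combines 667nm fluorescence intensity with signal-to-noise per printed compound spot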
# SETTINGS: COS7 cell lysate, fluorescence, higher = more signal
REPORTED_PROPERTY: composite z-score
Reply: number alone, nothing else.

// worked examples, composite z-score included
[
  {
    "COMPOUND": "C=CCOC(=O)[C@H]1[C@@H]2C(=O)O[C@@H](c3ccccc3)[C@@H](c3ccccc3)N2[C@@H](c2ccc(OCCOC(=O)[C@H]3C[C@H]4C(=O)N[C@@H](CCCC[N+](C)(C)C)C(=O)N4[C@H]3c3ccc(O)cc3)cc2)[C@]12C(=O)Nc1ccccc12",
    "composite z-score": 0.776
  },
  {
    "COMPOUND": "COC(=O)[C@@]1(Cc2ccc(F)cc2)[C@H]2c3cc(C(=O)N4CCCC4)n(CCc4ccc(OC)c(Br)c4)c3C[C@H]2CN1C(=O)c1ccccc1",
    "composite z-score": 3.26
  },
  {
    "COMPOUND": "C=CCN1C(=O)[C@@]2(O[C@@H](CCO)[C@H]([Si](C)(C)c3ccc(OC)cc3)[C@H]2C)c2cc(N3C(=O)COc4ccccc43)ccc21",
    "composite z-score": 1.4
  },
  {
    "COMPOUND": "Cc1ccc(S[C@]2(C(=O)NCc3ccccc3)CC(=O)N(Cc3cc(C(F)(F)F)cc(C(F)(F)F)c3)[C@@H]2c2ccc(CO)cc2)cc1",
    "composite z-score": 1.03
  },
  {
    "COMPOUND": "C=CCOC(=O)[C@@H]1[C@H]2C(=O)O[C@H](c3ccccc3)[C@H](c3ccccc3)N2[C@H](c2ccc(OCCOC(=O)[C@H]3C[C@H]4C(=O)N[C@@H](CC(C)C)C(=O)N4[C@H]3c3cccc(OCCO)c3)cc2)[C@@]12C(=O)Nc1ccc(I)cc12",
    "composite z-score": 1.48
  }
]

input: Return reported composite z-score; argument: COCCn1c(C(=O)N2CCCC2)cc2c1C[C@H]1CN(C(=O)c3ccccc3)[C@@](Cc3ccc(OC)cc3)(C(=O)OC)[C@@H]21
output: 2.11

input: Return reported composite z-score; argument: [N-]=[N+]=Nc1ccccc1[C@H]1OC(c2ccc(OCCCO)cc2)=N[C@@]1(CCS(=O)(=O)c1ccccc1)C(=O)N1CCOCC1
output: 2.65

input: Return reported composite z-score; argument: O=C1OCCC=C[C@H]2OC34C=CCN(c5ccc6ccccc6c5)C(=O)[C@H]3N(CCCCCCO)C(=O)[C@@H]4C12 (some centres not stated)
output: 0.386

input: Return reported composite z-score; argument: COCCOC(=O)N1C(=O)[C@@]2(c3cc(C#CCC(C(=O)OC)C(=O)OC)ccc31)[C@H](c1ccc(OCCO)cc1)N1[C@H](c3ccccc3)[C@H](c3ccccc3)OC(=O)[C@H]1[C@@H]2C(=O)NC[C@H](O)c1ccccc1
output: 2.42

input: Return reported composite z-score; argument: CCCCCCCCCCC(O)C1C=CC2C(=O)N(c3ccccc3)C(=O)C2N1Nc1ccc([N+](=O)[O-])cc1 (configuration not stated)
output: 1.63

input: Return reported composite z-score; argument: C=C(CCCC)C(=O)CC[C@H](OC(C)=O)c1ccc(CO)o1
output: 0.136

input: Return reported composite z-score; argument: COc1ccc(C(O)C2C=CC3C(=O)N(c4ccccc4)C(=O)C3N2Nc2ccccc2)c2ccccc12 (configuration not stated)
output: 1.97
